- Tested on: Leishmania donovani
- assayExplanation: In vitro for leishmanicidal activity against Leishmania donovani (PP75) at the concentration of 50 ug/mL.
- Format: functional, organism-based

{"molecule": "CCCCCCCCCCCCCCC(COCc1ccccc1)NCC(=O)OCC (stereo unspecified)", "Activity": "80-90% lysis of parasites"}
{"molecule": "CCCCCCCCCCCCCCC(N)CNC(=O)CCCC(=O)O (stereo unspecified)", "Activity": "+"}
{"molecule": "CCCCCCCCCCCCCCC(N)CN (stereo unspecified)", "Activity": "80-90% lysis of parasites"}
{"molecule": "CCCCCCCCCCCCCCC(CO)NC(=O)OC(C)(C)C (stereo unspecified)", "Activity": "80-90% lysis of parasites"}

* * *

- Tested on: Leishmania amazonensis
- assayExplanation: In vitro for leishmanicidal activity against Leishmania amazonensis (PH8) at the concentration of 50 ug/mL.
- Type: functional, organism-based
recordedEndpoint: Activity

The following molecules have reported results that may help.
{"molecule": "CCCCCCCCCCCCCCC(COC(=O)CCCCCC)NC(=O)CCCCCC (configuration not stated)", "Activity": "80-90% lysis of parasites"}
{"molecule": "CCCCCCCCCCCCCCC(COCc1ccccc1)NCC(=O)OCC (configuration not stated)", "Activity": "80-90% lysis of parasites"}
{"molecule": "CCCCCCCCCCCCCCC(CO)NCC (configuration not stated)", "Activity": "+"}
{"molecule": "CCCCCCCCCCCCCCC(CN)NC(=O)OC(C)(C)C (configuration not stated)", "Activity": "80-90% lysis of parasites"}
{"molecule": "CCCCCCCCCCCCCCC(CNCC(=O)OCC)NC(=O)OC(C)(C)C (configuration not stated)", "Activity": "+"}
{"molecule": "CCCCCCCCCCCCCCC(CN(CC)CC)NC(=O)CCCC(=O)O (configuration not stated)", "Activity": "+"}

Task: Fill in reported Activity for this entry: CCCCCCCCCCCCCCC(N)CNC(=O)CCCC(=O)O (configuration not stated)
Result: +

Task: Fill in reported Activity for this entry: CCCCCCCCCCCCCCC(NC(=O)OC(C)(C)C)C(=O)O (configuration not stated)
Result: 80-90% lysis of parasites

Task: Fill in reported Activity for this entry: CCCCCCCCCCCCCCC(N)CN(CC)CC (configuration not stated)
Result: +

Task: Fill in reported Activity for this entry: C[C@@H]1[C@H](O)[C@@H](C)/C=C/C=C/C=C/C=C/C=C/C=C/C=C/[C@H](O[C@@H]2O[C@H](C)[C@@H](O)[C@H](N)[C@@H]2O)C[C@@H]2O[C@](O)(C[C@@H](O)C[C@@H](O)[C@H](O)CC[C@@H](O)C[C@@H](O)CC(=O)O[C@H]1C)C[C@H](O)[C@H]2C(=O)O
Result: +

Task: Fill in reported Activity for this entry: CCCCCCCCCCCCCCC(CNCC)NC(=O)OC(C)(C)C (configuration not stated)
Result: +

Task: Fill in reported Activity for this entry: CCCCCCCCCCCCCCC(COCc1ccccc1)N(CC)CC (configuration not stated)
Result: 80-90% lysis of parasites

Task: Fill in reported Activity for this entry: CCCCCCCCCCCCCCC(CO)N(CC)CC (configuration not stated)
Result: +

Task: Fill in reported Activity for this entry: CCCCCCCCCCCCCCC(COCc1ccccc1)NCC (configuration not stated)
Result: +

Task: Fill in reported Activity for this entry: CCCCCCCCCCCCCCC(CN(CC(=O)OCC)CC(=O)OCC)NC(=O)OC(C)(C)C (configuration not stated)
Result: 80-90% lysis of parasites

Task: Fill in reported Activity for this entry: CCCCCCCCCCCCCCC(N)CN (configuration not stated)
Result: 80-90% lysis of parasites

* * *

- Test system: Leishmania braziliensis
- assayExplanation: Tested in vitro for leishmanicidal activity against Leishmania brasiliensis (2903) at the concentration of 100 ug/mL; ++ indicates 80-90% lysis of parasites
- Assay type: functional, organism-based
Overview of recorded Activity for various compounds

{"compound": "CCCCCCCCCCCCCCC(COCc1ccccc1)N(CC)CC (stereo not drawn)", "Activity": "80-90% lysis of parasites"}

Task: Fill in reported Activity for this entry: CCCCCCCCCCCCCCC(N)CN (stereo not drawn)
Result: 80-90% lysis of parasites

Task: Fill in reported Activity for this entry: CCCCCCCCCCCCCCC(NC(=O)OC(C)(C)C)C(=O)O (stereo not drawn)
Result: 80-90% lysis of parasites

* * *

- Tested on: Leishmania braziliensis
- assayExplanation: Tested in vitro for leishmanicidal activity against Leishmania brasiliensis (2903) at the concentration of 50 ug/mL;++ indicates 80-90% lysis of parasites
- Assay type: functional, organism-based
recordedEndpoint: Activity

The following compounds have reported results that may help.
{"compound": "CCCCCCCCCCCCCCC(CNCC(=O)OCC)NC(=O)OC(C)(C)C (centres undefined)", "targetOrTestSystem": "Leishmania braziliensis", "assayValue": "80-90% lysis of parasites"}
{"compound": "CCCCCCCCCCCCCCC(N)CN(CC(=O)O)CC(=O)O (centres undefined)", "targetOrTestSystem": "Leishmania braziliensis", "assayValue": "80-90% lysis of parasites"}
{"compound": "CCCCCCCCCCCCCCC(N)CNCC (centres undefined)", "targetOrTestSystem": "Leishmania braziliensis", "assayValue": "80-90% lysis of parasites"}

Attention now shifts to the item below.
Task: Fill in reported Activity for this entry: CCCCCCCCCCCCCCC(CO)NC(=O)CCCC(=O)O (centres undefined)
Result: 80-90% lysis of parasites

* * *

- Tested on: Leishmania donovani
- assayExplanation: In vitro for leishmanicidal activity against Leishmania donovani (PP75) at the concentration of 100 ug/mL.
- Format: functional, organism-based
recordedEndpoint: Activity

{"compound": "CCCCCCCCCCCCCCC(CNCC(=O)OCC)NC(=O)OC(C)(C)C (centres undefined)", "Activity": "+"}
{"compound": "CCCCCCCCCCCCCCC(CN(CC)CC)NC(=O)OC(C)(C)C (centres undefined)", "Activity": "+"}
{"compound": "CCCCCCCCCCCCCCC(N)CNC(=O)CCCC(=O)O (centres undefined)", "Activity": "+"}
{"compound": "CCCCCCCCCCCCCCC(N)CNCC(=O)O (centres undefined)", "Activity": "+"}
{"compound": "CCCCCCCCCCCCCCC(N)CNCC(=O)OCC (centres undefined)", "Activity": "+"}
{"compound": "CCCCCCCCCCCCCCC(N)CN (centres undefined)", "Activity": "80-90% lysis of parasites"}

Task: Fill in reported Activity for this entry: CCCCCCCCCCCCCCC(CNCC)NC(=O)OC(C)(C)C (centres undefined)
Result: 80-90% lysis of parasites

Task: Fill in reported Activity for this entry: CCCCCCCCCCCCCCC(N)CO (centres undefined)
Result: 80-90% lysis of parasites

Task: Fill in reported Activity for this entry: CCCCCCCCCCCCCCC(CO)NCC (centres undefined)
Result: +

Task: Fill in reported Activity for this entry: CCCCCCCCCCCCCCC(CN(CC)CC)NC(=O)CCCC(=O)O (centres undefined)
Result: +

Task: Fill in reported Activity for this entry: CCCCCCCCCCCCCCC(COCc1ccccc1)NC(=O)CCCC(=O)O (centres undefined)
Result: 80-90% lysis of parasites

* * *

- System: Leishmania donovani
- assayExplanation: In vitro for leishmanicidal activity against Leishmania donovani (PP75) at the concentration of 100 ug/mL.
- Type: functional, organism-based
recordedEndpoint: Activity

The following molecules have reported results that may help.
{"molecule": "CCCCCCCCCCCCCCC(COCc1ccccc1)N(CC)CC (stereo not drawn)", "recordedEndpoint": "Activity", "assayValue": "80-90% lysis of parasites"}
{"molecule": "CCCCCCCCCCCCCCC(N)CN(CC)CC (stereo not drawn)", "recordedEndpoint": "Activity", "assayValue": "+"}
{"molecule": "CCCCCCCCCCCCCCC(CO)NCC(=O)OCC (stereo not drawn)", "recordedEndpoint": "Activity", "assayValue": "+"}
{"molecule": "CCCCCCCCCCCCCCC(COC(=O)CCCCCC)NC(=O)CCCCCC (stereo not drawn)", "recordedEndpoint": "Activity", "assayValue": "80-90% lysis of parasites"}
{"molecule": "C[C@@H]1[C@H](O)[C@@H](C)/C=C/C=C/C=C/C=C/C=C/C=C/C=C/[C@H](O[C@@H]2O[C@H](C)[C@@H](O)[C@H](N)[C@@H]2O)C[C@@H]2O[C@](O)(C[C@@H](O)C[C@@H](O)[C@H](O)CC[C@@H](O)C[C@@H](O)CC(=O)O[C@H]1C)C[C@H](O)[C@H]2C(=O)O", "recordedEndpoint": "Activity", "assayValue": "+"}
{"molecule": "CCCCCCCCCCCCCCC(COCc1ccccc1)NCC (stereo not drawn)", "recordedEndpoint": "Activity", "assayValue": "+"}

Task: Fill in reported Activity for this entry: CCCCCCCCCCCCCCC(N)CN(CC(=O)OCC)CC(=O)OCC (stereo not drawn)
Result: +

Task: Fill in reported Activity for this entry: CCCCCCCCCCCCCCC(CO)N(CC)CC (stereo not drawn)
Result: +

Task: Fill in reported Activity for this entry: CCCCCCCCCCCCCCC(CO)NC(=O)CCCC(=O)O (stereo not drawn)
Result: +

Task: Fill in reported Activity for this entry: CCCCCCCCCCCCCCC(CN)NC(=O)OC(C)(C)C (stereo not drawn)
Result: 80-90% lysis of parasites

Task: Fill in reported Activity for this entry: CCCCCCCCCCCCCCC(N)CN(CC(=O)O)CC(=O)O (stereo not drawn)
Result: +

Task: Fill in reported Activity for this entry: CCCCCCCCCCCCCCC(CO)NCC(=O)O (stereo not drawn)
Result: +

Task: Fill in reported Activity for this entry: CCCCCCCCCCCCCCC(COCc1ccccc1)NCC(=O)OCC (stereo not drawn)
Result: 80-90% lysis of parasites
